Assay: Inhibition of microtubule polymerization at 10 uM after 10 mins
Calls of active or inactive are those of the source. The calls are words filed in the database; no cut-off is given here.
Respond only with the outcome that fits, drawn from class 1 = active, class 0 = inactive

Some entries whose results are on file:
1. COC1=C[C@@H]2ON(c3cnoc3C)[C@@H](C1=O)C1=C2c2c(cc(OC)c(OC)c2OC)CC[C@@H]1NC(C)=O: class 0
2. COC1=C[C@H]2C3=C([C@@H](ON2c2ccccn2)C1=O)[C@@H](NC(C)=O)CCc1cc(OC)c(OC)c(OC)c13: class 1

Tell me the recorded outcome of this test for COc1cc2c(c(OC)c1OC)-c1ccc(OC)c(=O)cc1[C@@H](NC(C)=O)CC2 [COLCHICINE] . class 1

How about this compound: `COC1=C[C@H]2C3=C([C@@H](ON2c2cccc(C)n2)C1=O)[C@@H](NC(C)=O)CCc1cc(OC)c(OC)c(OC)c13` class 1

How about `COC1=C[C@H]2C3=C([C@@H](ON2c2cc(C)on2)C1=O)[C@@H](NC(C)=O)CCc1cc(OC)c(OC)c(OC)c13` ? class 1
